assay: Metabolic stability in mouse liver microsomes assessed as intrinsic clearance at 1 uM incubated upto 60 mins in presence of NADP by LC-MS analysis; type: ADME, Microsome; conditions: read-out: CLH
readout_type: CLint scaled at 1 µM (mL/min/kg)
Give your result in mL/min/kg as a bare value.

**Query** Request the reported CLint scaled at 1 µM associated with CCOC(=O)N1CCc2c([nH]c3ccc(Cl)cc23)C1c1ccccc1 (configuration not stated)
**Result** 92

**Query** Name the reported CLint scaled at 1 µM value associated with the compound CCOC(=O)N1CCc2c([nH]c3ccc(Cl)cc23)C1c1ccc(OC)cc1 (configuration not stated)
**Result** 190

**Query** Quick one: CLint scaled at 1 µM of CCOC(=O)N1CCc2c([nH]c3ccc(Cl)cc23)C1c1cccc(F)c1 (configuration not stated) ?
**Result** 151

**Query** Look up CLint scaled at 1 µM: CCOC(=O)N1CCc2c([nH]c3ccc(Cl)cc23)C1c1ccc(Cl)cc1 (configuration not stated)
**Result** 221

**Query** So what's the measured CLint scaled at 1 µM for this one? COC(=O)N1CCc2c([nH]c3ccc(Cl)cc23)C1c1ccc(OC)cc1 (configuration not stated)
**Result** 174
